# Insecticidal activity against peach aphid (%) annotations
Test system: Green peach aphids (Myzus Persicae Sulzer)
Assay: bioactivity test against green peach aphid, airbrush foliar spray
Type: in vivo
Conditions: 1.25 mg/L; contrastive test
PROPERTY NAME: Insecticidal activity against peach aphid (%)

compound="Cc1ncnc(NCCc2ccc(Oc3ccc(C(F)(F)F)cn3)cc2)c1Cl [Compound I-22]" system="Green peach aphids (Myzus Persicae Sulzer)" recorded_result=100
compound=Cc1ncnc(NCCc2ccc(Oc3ccc(C#N)cc3F)cc2)c1Cl system="Green peach aphids (Myzus Persicae Sulzer)" recorded_result=60
compound=Cc1ncnc(NCCc2ccc(Oc3ccc(C(F)(F)F)cc3)nc2)c1Cl system="Green peach aphids (Myzus Persicae Sulzer)" recorded_result=67
compound="Cc1ncnc(NCCc2ccc(Oc3ccc(C(F)(F)F)cn3)cc2)c1Cl [Compound I-6731]" system="Green peach aphids (Myzus Persicae Sulzer)" recorded_result=60
compound="CCc1ncnc(NCCc2ccc(Oc3ccc(C(F)(F)F)cn3)cc2)c1Cl [Compound I-6757]" system="Green peach aphids (Myzus Persicae Sulzer)" recorded_result=100

---

# pest or weed control at 600 µg/mL annotations
System: carmine spider mite
Assay: bioactivity test against carmine spider mite, airbrush spray
Format: in vivo
Details: Tetranychus cinnabarinus, 72 h, 600 mg/L; contrastive test; read-out: Insecticidal activity against carmine spider mite (% )
PROPERTY NAME: pest or weed control at 600 µg/mL (%)

compound="CCc1ncnc(NCc2ccc(Oc3ncc(C(F)(F)F)cc3Cl)cc2)c1Cl [CK38, reference compound]" recorded_result=99
compound="CC(Cl)c1ncnc(NCCc2ccc(Oc3ccc(C(F)(F)F)cn3)cc2)c1Cl (stereo not shown) [CK24, reference compound]" recorded_result=100
compound="Cc1ncnc(NC(C)c2cccc3ccccc23)c1Cl (stereo not shown) [CK17, reference compound]" recorded_result=40
compound="COC(=O)c1ccc(Oc2ccc(CCNc3cc(Cl)nc(C)n3)cc2)nc1 [CK79, reference compound]" recorded_result=27
compound="CC(Cl)c1ncnc(NCCc2ccc(Oc3ncc(C(F)(F)F)cc3Cl)cc2)c1Cl (stereo not shown) [CK21, reference compound]" recorded_result=0
compound="CCOC(=O)c1ccc(Oc2ccc(CCNc3nc(Cl)ncc3Cl)cc2)nc1 [CK75, reference compound]" recorded_result=0
compound="CCc1ncnc(NC(=O)Cc2ccc(Oc3ccc(C(F)(F)F)cc3Cl)cc2)c1Cl [CK57, reference compound]" recorded_result=33
compound="CCc1ncnc(NC(=O)Cc2ccc(Oc3ccc(C(F)(F)F)cc3)cc2)c1Cl [CK59, reference compound]" recorded_result=0
compound="Cc1ncnc(NC(=O)Cc2ccc(Oc3ncc(C(F)(F)F)cc3Cl)cc2)c1Cl [CK60, reference compound]" recorded_result=0
compound="FC(F)(F)c1cccnc1Oc1ccc(CCNc2cc(Cl)nc(Cl)n2)cc1 [CK82, reference compound]" recorded_result=23

---

# pest or weed control at 6.25 µg/mL annotations
Tested on: wheat powdery mildew
Test: protectant activity in vivo against wheat powdery mildew
Conditions: Triticum aestivum, 168 h, read-out: control effect against wheat powdery mildew (%), 6.25 mg/L; protectant activity
PROPERTY NAME: pest or weed control at 6.25 µg/mL (%)

compound="Cc1ncnc(NC(C)c2ccc(Oc3ccc(C(F)(F)F)cc3Cl)cc2)c1Cl (centres unmarked) [CK30, reference compound]" property_name="pest or weed control at 6.25 µg/mL" readout_unit=% recorded_result=0
compound="FC(F)(F)c1ccc(Oc2ccc(CNc3ncnc4ccccc34)cc2)nc1 [CK31, reference compound]" property_name="pest or weed control at 6.25 µg/mL" readout_unit=% recorded_result=0
compound="Cc1ncnc(NCc2ccc(Oc3ncc(C(F)(F)F)cc3Cl)cc2)c1Cl [CK23, reference compound]" property_name="pest or weed control at 6.25 µg/mL" readout_unit=% recorded_result=0
compound="CCc1ncnc(NCc2ccc(Oc3ccc(C(F)(F)F)cc3Cl)cc2)c1Cl [CK48, reference compound]" property_name="pest or weed control at 6.25 µg/mL" readout_unit=% recorded_result=0
compound="FC(F)(F)c1cnc(Oc2ccc(CCNc3cc(Cl)ncn3)cc2)c(Cl)c1 [CK70, reference compound]" property_name="pest or weed control at 6.25 µg/mL" readout_unit=% recorded_result=0
compound="Cc1ncnc(NCc2ccc(Oc3ccc(C(F)(F)F)cc3)cc2)c1Cl [CK53, reference compound]" property_name="pest or weed control at 6.25 µg/mL" readout_unit=% recorded_result=0
compound="CCc1ncnc(OC(CC)c2ccc(Oc3ccc(C(F)(F)F)cn3)cc2)c1Cl (centres unmarked) [CK15, reference compound]" property_name="pest or weed control at 6.25 µg/mL" readout_unit=% recorded_result=0
compound="CCc1ncnc(NCCc2ccc(Oc3ccc(C(F)(F)F)cc3)nc2)c1Cl [III-202]" property_name="pest or weed control at 6.25 µg/mL" readout_unit=% recorded_result=95
compound="FC(F)(F)c1cnc(Oc2ccc(CCNc3ncnc(Cl)c3Cl)cc2)c(Cl)c1 [CK72, reference compound]" property_name="pest or weed control at 6.25 µg/mL" readout_unit=% recorded_result=50
compound="CCc1ncnc(NCCc2ccc(Oc3ccc(Cl)cc3)cc2)c1Cl [II-297]" property_name="pest or weed control at 6.25 µg/mL" readout_unit=% recorded_result=90
compound="CCc1ncnc(NCc2ccc(Oc3ccc(C(F)(F)F)cn3)cc2)c1Cl [CK42, reference compound]" property_name="pest or weed control at 6.25 µg/mL" readout_unit=% recorded_result=50
compound="N#Cc1ccc(Oc2ccc(CCNc3cc(Cl)ncn3)cc2)nc1 [CK83, reference compound]" property_name="pest or weed control at 6.25 µg/mL" readout_unit=% recorded_result=40
compound="COC(=O)c1ccc(Oc2ccc(CCNc3cc(Cl)ncn3)cc2)nc1 [CK77, reference compound]" property_name="pest or weed control at 6.25 µg/mL" readout_unit=% recorded_result=70
compound="Cc1ncnc(NC(C)c2cccc3ccccc23)c1Cl (centres unmarked) [CK17, reference compound]" property_name="pest or weed control at 6.25 µg/mL" readout_unit=% recorded_result=50
compound="Cc1ncnc(NCCc2ccc(Oc3ccc(C(F)(F)F)cn3)cc2)c1Cl [Compound I-22]" property_name="pest or weed control at 6.25 µg/mL" readout_unit=% recorded_result=100
compound="FC(F)(F)c1ccc(Oc2ccc(CCNc3ncnc4ccccc34)cc2)nc1 [CK12, reference compound]" property_name="pest or weed control at 6.25 µg/mL" readout_unit=% recorded_result=0
compound="CCc1ncnc(NCCc2ccc(Oc3cc(Cl)cc(Cl)c3)cc2)c1Cl [II-303]" property_name="pest or weed control at 6.25 µg/mL" readout_unit=% recorded_result=90

---

Tested on: carmine spider mite
Test: bioactivity test against carmine spider mite, airbrush spray
Format: in vivo
Settings: Tetranychus cinnabarinus, 72 h, 100 mg/L; contrastive test; read-out: Insecticidal activity against carmine spider mite (% )
Procedure: Compounds were dissolved in mixed solvent (acetone:methanol=1:1), and diluted to required concentration with water containing 0.1% of tween 80. […] The method: Broadbean shoots with two true leaves in pot were taken, the healthy adults of carmine spider mite were inoculated to the leaves. The adults were counted and then sprayed with airbrush at the pressure of 0.7 kg/cm^2 and at dose of 0.5 ml. […] Scores were conducted and mortalities were calculated after 72 hrs.
# pest or weed control at 100 µg/mL annotations
PROPERTY NAME: pest or weed control at 100 µg/mL

compound="CCC(Nc1ncnc(C)c1Cl)c1ccc(OC(F)F)cc1 (centres unmarked) [diflumetorim, reference compound]" property_name="pest or weed control at 100 µg/mL" recorded_result=100%
compound="FC(F)(F)c1ccc(Oc2ccc(CCNc3cc(Cl)ncn3)cc2)nc1 [CK69, reference compound]" property_name="pest or weed control at 100 µg/mL" recorded_result=100%
compound="Cc1nc(Cl)cc(NCCc2ccc(Oc3ccc(C#N)cn3)cc2)n1 [CK84, reference compound]" property_name="pest or weed control at 100 µg/mL" recorded_result=0%
compound="CCc1ncnc(OCCc2ccc(Oc3ccccc3)cc2)c1Cl [CK13, reference compound]" property_name="pest or weed control at 100 µg/mL" recorded_result=0%
compound="FC(F)(F)c1ccc(Oc2ccc(CCNc3ncnc4ccccc34)cc2)nc1 [CK12, reference compound]" property_name="pest or weed control at 100 µg/mL" recorded_result=41%
compound="Cc1ncnc(NCCc2ccc(Oc3ccc(Cl)cc3)nc2)c1Cl [III-7]" property_name="pest or weed control at 100 µg/mL" recorded_result=100%
compound="CC(Cl)c1ncnc(NCc2ccc(Oc3ccc(C(F)(F)F)cn3)cc2)c1Cl (centres unmarked) [CK43, reference compound]" property_name="pest or weed control at 100 µg/mL" recorded_result=29%
compound="CC(Cl)c1ncnc(NCCc2ccc(Oc3ccc(C(F)(F)F)cn3)cc2)c1Cl (centres unmarked) [CK24, reference compound]" property_name="pest or weed control at 100 µg/mL" recorded_result=100%

---

# inhibition at 25 ppm annotations
Test system: cucumber gray mold
Test: fungicidal activity in vitro (inhibition rate) against cucumber gray mold
Format: cell-based
Conditions: 25 ppm, in vitro; read-out: inhibition rate against cucumber gray mold
PROPERTY NAME: inhibition at 25 ppm (%)

compound="Cc1ncnc(NC(=O)Cc2ccc(Oc3ccc(C(F)(F)F)cc3Cl)cc2)c1Cl [CK58, reference compound]" recorded_result=0
compound="CCc1ncnc(NC(=O)Cc2ccc(Oc3ccc(C(F)(F)F)cn3)cc2)c1Cl [CK55, reference compound]" recorded_result=0
compound="COC(=O)c1ccc(Oc2ccc(CCNc3cc(Cl)nc(C)n3)cc2)nc1 [CK79, reference compound]" recorded_result=0
